Recorded Activity values for a group of compounds are listed next.
test system: Rattus norvegicus; experiment: Induced locomotor stimulation in non pre-treated rats by 13 umol/kg s.c. administration.; type: functional

# SMILES DATA, Activity [%]
data = [
    ("CCN(CC)[C@@H]1CCc2c(OC)cccc2[C@@H]1C", 40),
    ("CCCCN[C@@H]1CCc2c(OC)cccc2[C@@H]1C", 82),
    ("C[C@H]1c2cccc(O)c2CC[C@H]1N(C)C", 11),
    ("CCCCN(CCCC)[C@H]1CCc2c(O)cccc2[C@H]1C", 87),
    ("CN[C@@H]1CCc2c(O)cccc2[C@@H]1C", 73),
    ("CCN[C@@H]1CCc2c(OC)cccc2[C@@H]1C", 69),
    ("CCN(CC)[C@@H]1CCc2c(O)cccc2[C@@H]1C", 63),
]

---

target: Dopamine receptor (Rattus norvegicus) (UniProt P25115+P19020+P30729+P18901+P61169); test: Ability to displace the Dopamine receptor agonist DiPr-5,6-ADTN from rat striatal binding sites in vivo at a dose of 13 uM/kg by subcutaneous administration; assay type: organism-based
Recorded Binding values for a group of molecules are listed next.

# SMILES DATA, TARGET SYSTEM, UNIT NAME, Binding
data = [
    ("CCCCN(CCCC)[C@H]1CCc2c(O)cccc2[C@H]1C", "Dopamine receptor (Rattus norvegicus) (UniProt P25115+P19020+P30729+P18901+P61169)", "%", 124),
    ("C[C@@H]1c2cccc(O)c2CC[C@@H]1N(C)C", "Dopamine receptor (Rattus norvegicus) (UniProt P25115+P19020+P30729+P18901+P61169)", "%", 63),
    ("CCCCN[C@@H]1CCc2c(O)cccc2[C@@H]1C", "Dopamine receptor (Rattus norvegicus) (UniProt P25115+P19020+P30729+P18901+P61169)", "%", 46),
    ("CCCCN(CCCC)[C@@H]1CCc2c(O)cccc2[C@@H]1C", "Dopamine receptor (Rattus norvegicus) (UniProt P25115+P19020+P30729+P18901+P61169)", "%", 96),
    ("CCN(CC)[C@H]1CCc2c(O)cccc2[C@H]1C", "Dopamine receptor (Rattus norvegicus) (UniProt P25115+P19020+P30729+P18901+P61169)", "%", 70),
    ("CCCCN(CCCC)[C@@H]1CCc2c(OC)cccc2[C@@H]1C", "Dopamine receptor (Rattus norvegicus) (UniProt P25115+P19020+P30729+P18901+P61169)", "%", 115),
    ("CCCN(CCC)[C@H]1CCc2c(O)cccc2[C@@H]1C", "Dopamine receptor (Rattus norvegicus) (UniProt P25115+P19020+P30729+P18901+P61169)", "%", 91),
]

---

biological target: Dopamine receptor (Rattus norvegicus) (UniProt P25115+P19020+P30729+P18901+P61169); experiment: Ability to displace the Dopamine receptor agonist DiPr-5,6-ADTN from rat striatal binding sites in vivo at a dose of 52 uM/kg by subcutaneous administration; assay type: organism-based
Recorded Binding values for a group of compounds are listed next.

# SMILES DATA, Binding / %
measured = [
    ("CCCN[C@H]1CCc2c(O)cccc2[C@H]1C", 66),
    ("C[C@@H]1c2cccc(O)c2CC[C@@H]1N(C)C", 22),
    ("CCN(CC)[C@@H]1CCc2c(OC)cccc2[C@@H]1C", 28),
    ("CCCN(CCC)[C@@H]1CCc2c(OC)cccc2[C@@H]1C", 34),
]

---

test system: Rattus norvegicus; assay: Change in rectal temperature induced by DiPr-5,6-ADTN at a dose of 52 umol/kg of compound by subcutaneous administration; assay type: functional

# SMILES DATA, TARGET SYSTEM, UNIT NAME, Body temp change
measured = [
    ("CCN(CC)[C@@H]1CCc2c(OC)cccc2[C@@H]1C", "Rattus norvegicus", "°C", 1.4),
    ("C[C@@H]1c2cccc(O)c2CC[C@@H]1N(C)C", "Rattus norvegicus", "°C", 1.82),
    ("CCCN(CCC)[C@@H]1CCc2c(OC)cccc2[C@@H]1C", "Rattus norvegicus", "°C", 0.45),
    ("CCCN[C@H]1CCc2c(O)cccc2[C@H]1C", "Rattus norvegicus", "°C", -0.45),
]

---

Recorded Binding values for a group of molecules are listed next.
biological target: Dopamine receptor (Rattus norvegicus) (UniProt P25115+P19020+P30729+P18901+P61169); test: In vivo displacement of DiPr-5,6-ADTN from Dopamine receptors in rat striatum; type: organism-based

# SMILES DATA, Binding
rows = [
    ("CCN[C@@H]1CCc2c(O)cccc2[C@@H]1C", "64%"),
    ("CN[C@@H]1CCc2c(OC)cccc2[C@@H]1C", "51%"),
    ("CCN(CC)[C@@H]1CCc2c(OC)cccc2[C@@H]1C", "44%"),
    ("COc1cccc2c1CC[C@@H](N)[C@H]2C", "83%"),
    ("CCCN[C@@H]1CCc2c(OC)cccc2[C@@H]1C", "85%"),
    ("C[C@H]1c2cccc(O)c2CC[C@H]1N", "98%"),
    ("CCCCN[C@@H]1CCc2c(OC)cccc2[C@@H]1C", "76%"),
    ("CCCN[C@@H]1CCc2c(O)cccc2[C@@H]1C", "66%"),
    ("CN[C@@H]1CCc2c(O)cccc2[C@@H]1C", "54%"),
    ("CCN[C@@H]1CCc2c(OC)cccc2[C@@H]1C", "36%"),
    ("C[C@H]1c2cccc(O)c2CC[C@H]1N(C)C", "39%"),
    ("CCCN(CCC)[C@@H]1CCc2c(OC)cccc2[C@@H]1C", "83%"),
    ("CCN(CC)[C@@H]1CCc2c(O)cccc2[C@@H]1C", "49%"),
    ("COc1cccc2c1CC[C@@H](N(C)C)[C@H]2C", "60%"),
]

---

Recorded Activity values for a group of compounds are listed next.
system: Rattus norvegicus; assay: Induced locomotor stimulation in non pre-treated rats by 13 umol/kg s.c. administration.; format: functional

# SMILES DATA, Activity (%)
measured = [
    ("CCCN(CCC)[C@@H]1CCc2c(OC)cccc2[C@@H]1C", 78),
    ("CCN[C@@H]1CCc2c(O)cccc2[C@@H]1C", 95),
    ("CCCN(CCC)[C@H]1CCc2c(O)cccc2[C@@H]1C", 92),
    ("COc1cccc2c1CC[C@@H](N)[C@H]2C", 88),
    ("CCCCN(CCCC)[C@@H]1CCc2c(O)cccc2[C@@H]1C", 89),
    ("CCCCN[C@@H]1CCc2c(O)cccc2[C@@H]1C", 80),
    ("CCN(CC)[C@H]1CCc2c(O)cccc2[C@H]1C", 100),
    ("C[C@H]1c2cccc(O)c2CC[C@H]1N", 86),
    ("CCCCN(CCCC)[C@@H]1CCc2c(OC)cccc2[C@@H]1C", 96),
    ("C[C@@H]1c2cccc(O)c2CC[C@@H]1N(C)C", 34),
    ("CN[C@@H]1CCc2c(OC)cccc2[C@@H]1C", 35),
    ("CCCN[C@@H]1CCc2c(O)cccc2[C@@H]1C", 107),
]

The measurements presented in this section are drawn from ChEMBL document CHEMBL1123708.
